targetOrTestSystem: Melanin-concentrating hormone receptor 1 (Homo sapiens)
Sequence (Q99705 whole entry): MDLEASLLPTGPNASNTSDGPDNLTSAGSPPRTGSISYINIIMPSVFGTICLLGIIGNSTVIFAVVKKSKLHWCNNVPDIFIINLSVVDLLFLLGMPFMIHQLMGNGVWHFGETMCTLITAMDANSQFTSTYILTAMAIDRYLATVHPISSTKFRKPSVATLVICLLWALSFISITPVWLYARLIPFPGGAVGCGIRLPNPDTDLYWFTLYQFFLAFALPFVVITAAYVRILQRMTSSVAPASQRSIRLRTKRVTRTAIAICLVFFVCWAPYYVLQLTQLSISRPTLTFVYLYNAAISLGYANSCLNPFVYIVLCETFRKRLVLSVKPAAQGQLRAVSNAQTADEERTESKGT
test: Antagonist activity at human MCHR1 expressed in HEK293 cells assessed as [35S]GTPgammaS accumulation
Type: functional, cell-based
quantity: IC50 (µM)

O=C(COc1cccc(Cl)c1)NC1CCN(Cc2ccn(-c3ccc(OC(F)(F)F)cc3)c2)CC1 | 0.015

A: O=C(COc1cccc(Cl)c1)NC1CCN(Cc2cc3c(cc2Cl)OCO3)CC1
B: O=C(COc1cccc(Cl)c1)NC1CCN(Cc2ccc3ccccc3c2)CC1
C: O=C(COc1ccc(F)c(F)c1)NC1CCN(Cc2ccn(-c3ccc(C(F)(F)F)cc3)c2)C1 (stereo not given)
[in] List the 3 entries from lowest IC50 to highest IC50 value. Please reply with the labels ordered as requested. Many thanks.
[out] C, B, A

A: O=C(COc1cccc(Cl)c1)NC1CCN(Cc2ccn(-c3ccc(C(F)(F)F)cn3)c2)CC1
B: N#Cc1ccc(-n2ccc(CN3CCC(NC(=O)COc4cccc(Cl)c4)CC3)c2)cc1
C: O=C(NC1CCN(Cc2ccc(Cl)c(Cl)c2)CC1)c1csc([N+](=O)[O-])c1
D: Fc1ccc(-c2cc(C3CCN(Cc4ccn(-c5ccc(C(F)(F)F)cc5)c4)CC3)n[nH]2)cc1
[in] List the 4 entries from lowest IC50 to highest IC50 value. Please reply with the labels ordered as requested. Many thanks.
[out] D, A, B, C

P: CC(c1ccn(-c2ccc(C(F)(F)F)cc2)c1)N1CCC(NC(=O)COc2cccc(Cl)c2)CC1 (stereo not given)
Q: O=C(COc1cccc(Cl)c1)NC1CN(Cc2ccn(-c3ccc(C(F)(F)F)cc3)c2)C1
[in] Given P and Q , report the one with the higher recorded IC50. Field: selected label. Fill in the label of the entry you choose.
[out] P

A: Fc1ccc(-c2c[nH]c(C3CCN(Cc4ccn(-c5ccc(C(F)(F)F)cc5)c4)CC3)n2)cc1
B: Cc1c(-c2ccccc2)[nH]c(=O)n1C1CCN(Cc2ccn(-c3ccc(C(F)(F)F)cc3)c2)CC1
[in] Of A and B , which shows the smaller IC50 value? Field: selected label. Fill in the label of the entry you choose.
[out] B

Data provenance is ChEMBL document CHEMBL1156734.
